Reported apparent KD of MS2 coat protein is given for each of the following sequences.
# Test system: MS2 coat protein
# assay_name: apparent KD of MS2 coat protein; designed switch direction (-1 OFF switch, 1 ON switch): -1; higher = weaker reporter binding
# conditions: input ligand: none
Give the figure together with its unit, number first.

In the examples that follow, each entry is paired with its recorded apparent KD of MS2 coat protein.
>  <seq_text>
ACAUGACUGCUAGGAUAUAGAUGACAUGAGGAUCACCCAUGUUGUCUCAUGUUUAUGGAAACGGACUAGAAGGAGUAGUAUAUG [Ex NG2 #15] (Eterna round: R96, puzzle: Exclusion NG 2)

>  <apparent KD of MS2 coat protein>
21.3 nM

$$$$
>  <seq_text>
UUCGUGCAGCUUUGCUGUACGCGUACAUGAGGAUCACCCAUGUAGGAUAUGGUACGCUUUGCGUGCUAGAAGGAUAUGGAGAGG [JL EXNG3 1.34] (Eterna round: R96, puzzle: Exclusion NG 3)

>  <apparent KD of MS2 coat protein>
37.6 nM

$$$$
>  <seq_text>
AAGAAGAAGUAAGGAUAUGAAGAUUUGGUGGUGACAUGAGGAUCACCCAUGUGAAAACAAUAAGAUCAGAAGGUAUAAGAAGAA [AK ExNG2-3] (Eterna round: R96, puzzle: Exclusion NG 2)

>  <apparent KD of MS2 coat protein>
405 nM

$$$$
>  <seq_text>
ACCAGUGGAGGAUAUACAUGAGGAUCACCCAUGUGUUGAAUAGGUGGAGAACCACAAAGUAGAAGGCCACUGGA [jl-ex3-4.79 jandersonlee automod] (Eterna round: R97, puzzle: Exclusion 3)

>  <apparent KD of MS2 coat protein>
76.6 nM

$$$$
>  <seq_text>
CGUCCACUUGAGGAUCACCCAAGUUAGGAUAUCUCCCAGCUCGCAUGUGCGGUUGGUCAGAGAAGGAACCAGGG [Ravereed] (Eterna round: R97, puzzle: Exclusion 1)

>  <apparent KD of MS2 coat protein>
29 nM

$$$$
>  <seq_text>
UAAGAGUGAGGAUAUGCGUCGCUGGUCCGGAUGGACGCAUGACAUGAGGAUCACCCAUGUAGAAGGCACAAAAC [Enxela Mod 5 - Jieux - Exclusion 2] (Eterna round: R97, puzzle: Exclusion 2)

>  <apparent KD of MS2 coat protein>
23.5 nM

$$$$

### Prompt With MS2 coat protein as the test system, provide measured apparent KD of MS2 coat protein for this sequence: CAGCGUGAAGGAUAUACAUGAGGAUCACCCAUGUGCAACUCUCCAACUCGGACUCCCUGUAGAAGGUCGGCUUU [Eternabot (L2) Solution 88] (Eterna round: R97, puzzle: Exclusion 3)
### Response 28 nM

### Prompt Enter recorded apparent KD of MS2 coat protein with MS2 coat protein for UGUGUGAGACAGGAUAUGCUGGAUGAGAGGCAGGUAGAAGGGUCUACAUGAGGAUCACCCAUGUGGCCGGUUGG [Ex6 #72] (Eterna round: R97, puzzle: Exclusion 6) here.
### Response 26.3 nM

### Prompt Answer with apparent KD of MS2 coat protein of ACUGUUUGAUACCUCUAAUACAUGAGGAUCACCCAUGUUAUCGAGGAUAUGCAUUAGAGUGGUUAGCAGAAGGCGAAGUAAUUG [JR_ExcNG3_Sub031] (Eterna round: R96, puzzle: Exclusion NG 3) measured for MS2 coat protein.
### Response 21.6 nM

### Prompt Consider the sequence CUCUCACAUGAGGAUCACCCAUGUCAGGAUAUCUCAGUGCAUCCACACGGACGCAUCAAGAGAAGGGACAAAAC [Vinxlusion 2 - Jieux - Exclusion 1] (Eterna round: R97, puzzle: Exclusion 1) tested on MS2 coat protein; state its apparent KD of MS2 coat protein.
### Response 59.1 nM

* * *

# Tested on: MS2 coat protein
# assay_name: apparent KD of MS2 coat protein; designed switch direction (-1 OFF switch, 1 ON switch): -1; higher = weaker reporter binding
# conditions: Eterna round: R95; input ligand: none
result_type: apparent KD of MS2 coat protein (µM)
Note: unit µM is implicit; provide only the numeric part.

// below: answered sequences
>  <seq_text>
AAGAAACAUGAGGAUCACCCAUGUGAGGAUAUGUAAAAGAAAAUAAAAUAAAGAAGAAACAGAAGGCACAAAGG [Mat - Mod of Hog D20] (puzzle: Exclusion 1)

>  <target_desc>
MS2 coat protein

>  <value_observed>
0.043

$$$$
>  <seq_text>
GAAAAGGUAGGAUAUACAAAAAAAAAGGGUAGAAAAAAAACACAUGAGGAUCACCCAUGUAGAAGGACCAAAAG [salish99_ex2_r3_057] (puzzle: Exclusion 2)

>  <target_desc>
MS2 coat protein

>  <value_observed>
0.0259

$$$$
>  <seq_text>
GUGUAACUACACGGGCUCAACAUGAGGAUCACCCAUGUCAUACACGCAAGCUUUUUGCUUGUCUUAUCAGUCCGUGA [Rereerdiin] (puzzle: Sensor v3, turn-off variant 1)

>  <target_desc>
MS2 coat protein

>  <value_observed>
0.0111

$$$$
>  <seq_text>
CUGAGGUAGCGGUCCUAUGACAUGAGGAUCACCCAUGUACCUUGCUUUGAGCAAUUUGCUCGUCUUAUGAUUCUCGG [Mat - Sensor v3 - turn-off var 1 - JL Mod - D46] (puzzle: Sensor v3, turn-off variant 1)

>  <target_desc>
MS2 coat protein

>  <value_observed>
0.533

$$$$

// moving on: another record for apparent KD of MS2 coat protein
### Prompt Entry UACCGGCGGACCGAAGCUUUUUGCUUGUCUUAUACUACGACAUGAGGAUCACCCAUGUGGUGGUGGUCCGUUGUAGU [JL ViennaUCT Bitein mod 3] (puzzle: Sensor v3, turn-off variant 2) needs its apparent KD of MS2 coat protein filled in; supply it.
### Response 0.0521

* * *

# Tested on: MS2 coat protein
# assay_name: apparent KD of MS2 coat protein; designed switch direction (-1 OFF switch, 1 ON switch): 1; higher = weaker reporter binding
# conditions: Eterna round: R95; input ligand: none
Decision: apparent KD of MS2 coat protein >= 400 nM yields true (1), all other cases yield false (0).

Completed entries (count: 4):
>  <seq_text>
AUAAAACAUGAGGAUCACCCAUGUCAACAAAGUCGAGGAUAUGGGCUAAUAAAAUAAGAACCAGAAGGCGAAUAAU [salish99_ss1_r3_027] (puzzle: Same State 1)

>  <discrete_label>
false (0)

$$$$
>  <seq_text>
GGUCCAGCCUGAGCUGGACAAAAGCAUGUACAUGAGGAUCACCCAUGUUCAUGUACAAGCUUUUUGCUCGUCUUAUG [salish99_208a_r3_053] (puzzle: Sensor for hsa-mir-208a)

>  <discrete_label>
true (1)

$$$$
>  <seq_text>
AGUCCAGCCUGAGCUGGACAAAAGCAUGUACAUGAGGAUCACCCAUGUUCAUGUACAAGCUUUUUGUUCGUCUUAAA [Zipper 52 - 9] (puzzle: Sensor for hsa-mir-208a)

>  <discrete_label>
true (1)

$$$$
>  <seq_text>
ACAAGCUUUUUAGGAGAGAAAGGAGGGAAACAUGAGGAUCACCCAUGUAUGGUAGUGAAUAGAGGAACUCGUCUUAU [JR_SHM208A_Sub080] (puzzle: Sensor for hsa-mir-208a)

>  <discrete_label>
false (0)

$$$$

Okay, next one:
### Prompt State whether the measured apparent KD of MS2 coat protein reaches 400 nM, counting equality as reaching it, for CGUCCGGCCUGUGCUGGCCGGAAGCAUGUACAUGAGGAUCACCCAUGUUCAUGUGCAGGCUUUUUGCUCGUCUUGUG [salish99_mir208a_r3_006] (puzzle: Sensor for hsa-mir-208a)
### Response false (0)

* * *

# Test system: MS2 coat protein
# assay_name: apparent KD of MS2 coat protein, switch OFF state (with FMN for OFF switches, without FMN for ON switches); designed switch direction (-1 OFF switch, 1 ON switch): 1; higher = weaker reporter binding
# conditions: FMN input: 0 or 200 uM; Eterna round: R93 (includes R88 designs)
Please use yes whenever apparent KD of MS2 coat protein is not below 50 nM, and no whenever it is.

Use the examples below as a reference point.
>  <seq_text>
AGGAAACAUGAGGAUCACCCAUGUAAAAAAUAUGGAGGAUAUGCUAGAAGAAACAAAAUAGCAGAAGGCCAAAAAA [75%, Ex sub1, 23]

>  <discrete_label>
no

$$$$
>  <seq_text>
AGAAAUAAAACGAAGGAUAUCCAAAAUAAAACAUGAGGAUCACCCAUGUAAAAGAAAAUAAAGUGGGAGAAGGUCGAAAAUAAGA [Designing denovo 15]

>  <discrete_label>
yes

$$$$
>  <seq_text>
GAUAAACAUGAGGAUCACCCAUGUAGAUAUAUGGGAGGAUAUACAAAGACGAUAGUCAUAGUAGAAGGCCUAAUAG [77%, Mat - Mod of Eli - With 5 more U's]

>  <discrete_label>
yes

$$$$
>  <seq_text>
AGAAGACAUGAGGAUCACCCAUGUGGGAUUAUGGGAGGAUAUACAAAGACGAGAGUCAGAGUAGAAGGCCUAGGAU [salish99-ss1-113(!)]

>  <discrete_label>
yes

$$$$

### Prompt Can AAUAAGACUAGCAAGGAUAUCUAAAACGAAACAUGAGGAUCACCCAUGUAACGAGUACACGUAUCAGAGAAGGUGCAGGGUGAAA [JR_SS002_Sub305] be said to have apparent KD of MS2 coat protein at or above 50 nM?
### Response no

### Prompt Does the reported apparent KD of MS2 coat protein for AAAACACAUGAGGAUCACCCAUGUAAAAACUUGGGAGGAUAUGCUUGGAAAACAUGCUAUGCAGAAGGCUCUAGUG [SS1 - 13] fall at or above the 50 nM mark?
### Response yes
